Data origin, for the record: paper PMC8621857

Tested on: S. cerevisiae strain AD3Δ ScErg11 I471T expressing ScLDM6×His I471T
METHOD_DESCRIPTION: Broth microdilution drug susceptibility assay (MIC80), strain AD3Δ ScErg11 I471T
Assay type: cell-based, Saccharomyces cerevisiae
CONDITION_NOTES: strain I471T, relative expression 0.51
RESULT_TYPE: MIC80/Relative Amount of ScLDM6×His (µM)
Number in µM, nothing else.

Would you kindly share the measured MIC80/Relative Amount of ScLDM6×His for CCC(C)n1ncn(-c2ccc(N3CCN(c4ccc(OCC5COC(Cn6cncn6)(c6ccc(Cl)cc6Cl)O5)cc4)CC3)cc2)c1=O (centres unmarked) ? 0.2

Also need O[C@@](Cn1cnnn1)(c1ccc(F)cc1F)C(F)(F)c1ccc(-c2ccc(OCC(F)(F)F)cc2)cn1 , thanks. 0.0679

Also need C[C@@H](c1ncncc1F)[C@](O)(Cn1cncn1)c1ccc(F)cc1F , thanks. 0.145

Also need CC[C@@H]([C@H](C)O)n1ncn(-c2ccc(N3CCN(c4ccc(OC[C@@H]5CO[C@@](Cn6cncn6)(c6ccc(F)cc6F)C5)cc4)CC3)cc2)c1=O , thanks. 0.527

Also need OC(Cn1cncn1)(Cn1cncn1)c1ccc(F)cc1F , thanks. 3.69

====

TESTED_ON: wild-type (AD3Δ) ScLDM6×His (Saccharomyces cerevisiae, UniProt P10614)
Construct: recombinant full-length C-terminal hexahistidine-tagged wild-type Saccharomyces cerevisiae LDM (ScLDM6×His); 6×His (hexahistidine) (C); made in house; host or cells: Saccharomyces cerevisiae strain AD3Δ ScErg11 (overexpression from the PDR5 locus, native ERG11 disrupted)
Sequence (P10614 whole entry, stated change not applied): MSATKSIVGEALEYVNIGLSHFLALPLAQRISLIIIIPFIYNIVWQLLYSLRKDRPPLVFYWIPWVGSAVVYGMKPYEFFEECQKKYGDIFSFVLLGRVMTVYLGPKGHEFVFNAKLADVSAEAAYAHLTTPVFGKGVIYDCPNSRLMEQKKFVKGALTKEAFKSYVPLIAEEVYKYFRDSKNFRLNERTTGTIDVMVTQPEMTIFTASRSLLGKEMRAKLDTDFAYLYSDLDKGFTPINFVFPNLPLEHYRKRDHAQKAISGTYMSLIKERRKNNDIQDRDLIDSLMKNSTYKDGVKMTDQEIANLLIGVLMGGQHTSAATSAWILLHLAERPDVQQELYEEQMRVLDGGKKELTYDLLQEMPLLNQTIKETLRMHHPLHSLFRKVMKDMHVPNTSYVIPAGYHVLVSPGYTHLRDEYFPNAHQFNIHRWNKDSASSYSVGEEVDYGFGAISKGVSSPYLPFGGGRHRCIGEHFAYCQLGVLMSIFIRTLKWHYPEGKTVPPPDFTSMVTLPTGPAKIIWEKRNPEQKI
METHOD_DESCRIPTION: Type II azole binding to affinity purified wild-type ScLDM6×His
CONDITION_NOTES: wild-type ScLDM6×His; supplement, 'in the 0.5 μM range'
RESULT_TYPE: Kd

Would you kindly share the measured Kd for CCC(C)n1ncn(-c2ccc(N3CCN(c4ccc(OCC5COC(Cn6cncn6)(c6ccc(Cl)cc6Cl)O5)cc4)CC3)cc2)c1=O (centres unmarked) [ITC, itraconazole] ? ~500 nM

Also need C[C@@H](c1ncncc1F)[C@](O)(Cn1cncn1)c1ccc(F)cc1F [VCZ, voriconazole] , thanks. ~500 nM

====

System: C. albicans strain SC5314
METHOD_DESCRIPTION: Agarose disk diffusion assay, control strain SC5314
Type: cell-based, Candida albicans
CONDITION_NOTES: SC5314, RC21v3 at 6 µM in the assay medium
RESULT_TYPE: effect of Cdr1p inhibitor RC21v3 on azole susceptibility

CC[C@@H]([C@H](C)O)n1ncn(-c2ccc(N3CCN(c4ccc(OC[C@@H]5CO[C@@](Cn6cncn6)(c6ccc(F)cc6F)C5)cc4)CC3)cc2)c1=O [PCZ, Posaconazole]; increased susceptibility
CCC(C)n1ncn(-c2ccc(N3CCN(c4ccc(OCC5COC(Cn6cncn6)(c6ccc(Cl)cc6Cl)O5)cc4)CC3)cc2)c1=O (stereo not shown) [ITC, itraconazole]; increased susceptibility

====

System: S. cerevisiae strain AD3Δ ScErg11 I471T expressing ScLDM6×His I471T
METHOD_DESCRIPTION: Broth microdilution drug susceptibility assay (MIC80), strain AD3Δ ScErg11 I471T
Type: cell-based, Saccharomyces cerevisiae
CONDITION_NOTES: strain AD3Δ ScErg11 I471T; not corrected for expression
For each entry below, report its increased susceptibility compared with AD3Δ value.
Number in fold, nothing else.

Would you kindly share the measured increased susceptibility compared with AD3Δ for O[C@@](Cn1cnnn1)(c1ccc(F)cc1F)C(F)(F)c1ccc(-c2ccc(OCC(F)(F)F)cc2)cn1 ? 2.2

Also need C[C@@H](c1ncncc1F)[C@](O)(Cn1cncn1)c1ccc(F)cc1F , thanks. 1.2

Also need CC[C@@H]([C@H](C)O)n1ncn(-c2ccc(N3CCN(c4ccc(OC[C@@H]5CO[C@@](Cn6cncn6)(c6ccc(F)cc6F)C5)cc4)CC3)cc2)c1=O , thanks. 1.6

Also need OC(Cn1cncn1)(Cn1cncn1)c1ccc(F)cc1F , thanks. 1.9

====

For each entry below, report its MIC80/Relative Amount of ScLDM6×His value.
System: S. cerevisiae strain AD3Δ ScErg11 Y140H I471T expressing ScLDM6×His Y140H I471T
METHOD_DESCRIPTION: Broth microdilution drug susceptibility assay (MIC80), strain AD3Δ ScErg11 Y140H I471T
Type: cell-based, Saccharomyces cerevisiae
CONDITION_NOTES: strain Y140H+I471T, relative expression 0.41
Number in µM, nothing else.

So what MIC80/Relative Amount of ScLDM6×His did O[C@@](Cn1cnnn1)(c1ccc(F)cc1F)C(F)(F)c1ccc(-c2ccc(OCC(F)(F)F)cc2)cn1 get with S. cerevisiae strain AD3Δ ScErg11 Y140H I471T expressing ScLDM6×His Y140H I471T? 0.165

Also need CCC(C)n1ncn(-c2ccc(N3CCN(c4ccc(OCC5COC(Cn6cncn6)(c6ccc(Cl)cc6Cl)O5)cc4)CC3)cc2)c1=O (centres unmarked) , thanks. 0.263

Also need CC[C@@H]([C@H](C)O)n1ncn(-c2ccc(N3CCN(c4ccc(OC[C@@H]5CO[C@@](Cn6cncn6)(c6ccc(F)cc6F)C5)cc4)CC3)cc2)c1=O , thanks. 0.646

Also need C[C@@H](c1ncncc1F)[C@](O)(Cn1cncn1)c1ccc(F)cc1F , thanks. 0.609

Also need OC(Cn1cncn1)(Cn1cncn1)c1ccc(F)cc1F , thanks. 28.0

====

TESTED_ON: ScLDM6×His I471T (Saccharomyces cerevisiae, UniProt P10614, I471T)
Construct: structurally aligned mutations in recombinant hexahistidine-tagged full-length Saccharomyces cerevisiae LDM6×His (ScLDM6×His); 6×His (hexahistidine) (C); made in house; host or cells: Saccharomyces cerevisiae strain AD3Δ ScErg11 I471T (overexpression from the PDR5 locus, native ERG11 disrupted)
Sequence (P10614 whole entry I471T): as the sequence (P10614 whole entry, stated change not applied) above, with I471T counted along it
METHOD_DESCRIPTION: Type II azole binding to affinity purified ScLDM6×His I471T
CONDITION_NOTES: ScLDM6×His I471T, 2 µM enzyme; (± SEM), μM; read-out: [Azole]0.5
RESULT_TYPE: IC50 (µM)
Number in µM, nothing else.

So what IC50 did CCC(C)n1ncn(-c2ccc(N3CCN(c4ccc(OCC5COC(Cn6cncn6)(c6ccc(Cl)cc6Cl)O5)cc4)CC3)cc2)c1=O (centres unmarked) [ITC, itraconazole] get with ScLDM6×His I471T (Saccharomyces cerevisiae, UniProt P10614, I471T)? 0.79

Also need C[C@@H](c1ncncc1F)[C@](O)(Cn1cncn1)c1ccc(F)cc1F [VCZ, voriconazole] , thanks. 0.75

====

Tested on: S. cerevisiae strain AD3Δ ScErg11 Y140H expressing ScLDM6×His Y140H
METHOD_DESCRIPTION: Broth microdilution drug susceptibility assay (MIC80), strain AD3Δ ScErg11 Y140H
Format: cell-based, Saccharomyces cerevisiae
CONDITION_NOTES: strain Y140H, relative expression 0.74
For each entry below, report its MIC80/Relative Amount of ScLDM6×His value.
Number in µM, nothing else.

Would you kindly share the measured MIC80/Relative Amount of ScLDM6×His for C[C@@H](c1ncncc1F)[C@](O)(Cn1cncn1)c1ccc(F)cc1F [VCZ, voriconazole] ? 0.221

Also need O[C@@](Cn1cnnn1)(c1ccc(F)cc1F)C(F)(F)c1ccc(-c2ccc(OCC(F)(F)F)cc2)cn1 [VT-1161] , thanks. 0.157

Also need CC[C@@H]([C@H](C)O)n1ncn(-c2ccc(N3CCN(c4ccc(OC[C@@H]5CO[C@@](Cn6cncn6)(c6ccc(F)cc6F)C5)cc4)CC3)cc2)c1=O [PCZ, Posaconazole] , thanks. 0.445

Also need CCC(C)n1ncn(-c2ccc(N3CCN(c4ccc(OCC5COC(Cn6cncn6)(c6ccc(Cl)cc6Cl)O5)cc4)CC3)cc2)c1=O (centres unmarked) [ITC, itraconazole] , thanks. 0.151

Also need OC(Cn1cncn1)(Cn1cncn1)c1ccc(F)cc1F [FLC, fluconazole] , thanks. 10

====

System: S. cerevisiae strain AD3Δ ScErg11 Y140H expressing ScLDM6×His Y140H
METHOD_DESCRIPTION: Broth microdilution drug susceptibility assay (MIC80), strain AD3Δ ScErg11 Y140H
Assay type: cell-based, Saccharomyces cerevisiae
CONDITION_NOTES: Saccharomyces cerevisiae; strain Y140H; 48 h, 30 °C, pH 6.8; mean (± SEM), n = 3
Starred links: 1 amine or outer side, 2 acyl side, 3 side chain; linkers in the order of their positions; H or OH if unused. Positions of bridges follow the written chain, without caps; N, C: chain ends. Non-standard residues stand in square brackets, D forms with d. Residues, ends and D or L forms follow the SMILES beside them. *: point of attachment. hTyr(3S-OH,4S-OH,3'-OSO3H) = N[C@H](C(=O)O)[C@H](O)[C@@H](O)c1ccc(O)c(OS(=O)(=O)O)c1; Orn(4R-OH,5R-OH) = O=C([C@H](C[C@@H](O)[C@@H](O)N[*:3])N[*:1])[*:2]; Pro(3S-OH,4S-Me) = C[C@H]1CN[C@H](C(=O)O)[C@H]1O; X1 = CCCCCOc1ccc(-c2cc(-c3ccc(C(=O)*)cc3)no2)cc1; Gln(3R-OH) = NC(=O)C[C@@H](O)[C@H](N)C(=O)O; Hyp = O=C(O)[C@@H]1C[C@@H](O)CN1
Labelling field: enter T if recorded MIC80 is less than 0.3 µM. Enter F if it equals or exceeds that cut-off.

Please determine if OC(Cn1cncn1)(Cn1cncn1)c1ccc(F)cc1F [FLC, fluconazole] is below 0.3 µM in terms of MIC80. F

Also need CCC(C)n1ncn(-c2ccc(N3CCN(c4ccc(OCC5COC(Cn6cncn6)(c6ccc(Cl)cc6Cl)O5)cc4)CC3)cc2)c1=O (stereo not shown) [ITC, itraconazole] , thanks. T

Also need O[C@@](Cn1cnnn1)(c1ccc(F)cc1F)C(F)(F)c1ccc(-c2ccc(OCC(F)(F)F)cc2)cn1 [VT-1161] , thanks. T

Also need CCCCCOc1ccc(-c2cc(-c3ccc(C(=O)N[C@H]4C[C@@H](O)[C@@H](O)NC(=O)[C@@H]5[C@@H](O)[C@@H](C)CN5C(=O)[C@H]([C@H](O)CC(N)=O)NC(=O)[C@H]([C@H](O)[C@@H](O)c5ccc(O)c(OS(=O)(=O)O)c5)NC(=O)[C@@H]5C[C@@H](O)CN5C(=O)[C@H]([C@@H](C)O)NC4=O)cc3)no2)cc1 [MCF, micafungin] (X1-[Orn(4R-OH,5R-OH)]T[Hyp][hTyr(3S-OH,4S-OH,3'-OSO3H)][Gln(3R-OH)][Pro(3S-OH,4S-Me)]; lactam 1-C) , thanks. T

Also need C[C@@H]1[C@H](O)[C@@H](C)/C=C/C=C/C=C/C=C/C=C/C=C/C=C/[C@H](O[C@@H]2O[C@H](C)[C@@H](O)[C@H](N)[C@@H]2O)C[C@@H]2O[C@](O)(C[C@@H](O)C[C@@H](O)[C@H](O)CC[C@@H](O)C[C@@H](O)CC(=O)O[C@H]1C)C[C@H](O)[C@H]2C(=O)O [AMB, amphotericin B] , thanks. F

Also need CC[C@@H]([C@H](C)O)n1ncn(-c2ccc(N3CCN(c4ccc(OC[C@@H]5CO[C@@](Cn6cncn6)(c6ccc(F)cc6F)C5)cc4)CC3)cc2)c1=O [PCZ, Posaconazole] , thanks. F

Also need C[C@@H](c1ncncc1F)[C@](O)(Cn1cncn1)c1ccc(F)cc1F [VCZ, voriconazole] , thanks. T
